target: T1, recombinant human IL4Rα-his protein (in house made) (human, UniProt P24394 26-232, limits assumed); test: SPR (Biacore), antibody captured, IL4Rα-his flowed
T1 construct: also called Human IL4Ra-his
attribute measured: Dissociation % (%)
Express the result in % but write the number alone.

Answered examples (4):
- binder: "huC2C1A1A1-V3 (antibody, human IgG4, V domains shown, Humanized, human IgG4/kappa) VH: EVQLVESGGGLVQPGGSLRLSCAASGFTFSTYGMSWVRQAPGKGLVWVSTINSNGGSTSYPDSVKGRFTISRDNAKNTLYLQMNSLRAEDTAVYYCARFFRFRNAMDYWGQGTLVTVSS VL: DIQMTQSPSSLSASVGDRVTITCRTSENIYSYLAWYQQKPGKAPKFLVYNAKTLAEGVPSRFSGSGSGTDFTLTISSLQPEDFATYYCQHYYGPPTWTFGQGTKVEIKR"
  Dissociation % / %: -0.62
- binder: "huC2C1A1A1-V8 (antibody, human IgG4 S228P, kappa, V domains shown, Humanized, human IgG4/kappa) VH: EVQLVESGGGLVQPGGSLRLSCAASGFTFSTYGMSWVRQSPDKRLEWVSTINSNGGSTSYPDSVKGRFTISRDNAKNTLYLQMRSLRAEDTAVYYCARFFRFRNAMDYWGQGTLVTVSS VL: DIQMTQSPSSLSASVGDRVTITCRTSENIYSYLAWYQQKPGKAPKFLIYNAKTLAEGVPSRFSGSGSGTDFTLTISSLQPEDFATYYCQHYYGPPTWTFGQGTKVEIKR"
  Dissociation % / %: -1.23
- binder: "huC2C1A1A1-V14 (antibody, human IgG4 S228P, kappa, V domains shown, Humanized, human IgG4/kappa) VH: EVQLVESGGGLVQPGGSLRLSCAASGFTFSTYGMSWVRQAPGKGLVWVATINSNGGSTSYPDSVKGRFTISRDNAKNTLYLQMNSLRAEDTAVYYCARFFRFRNAMDYWGQGTLVTVSS VL: DIQMTQSPSSLSASVGQRVTITCRTSENIYSYLAWYQQKQGKPPRFLIYNAKTLAEGVPSRFSGSGSGTEFTLTITSLQAEDFGVYYCQHYYGPPTWTFGPGTKLEIKR"
  Dissociation % / %: 0.8
- binder: "huC2C1A1A1-V6 (antibody, human IgG4 S228P, kappa, V domains shown, Humanized, human IgG4/kappa) VH: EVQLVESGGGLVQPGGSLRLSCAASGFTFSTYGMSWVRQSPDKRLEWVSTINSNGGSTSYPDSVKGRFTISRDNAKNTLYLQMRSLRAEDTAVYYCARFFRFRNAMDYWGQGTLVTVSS VL: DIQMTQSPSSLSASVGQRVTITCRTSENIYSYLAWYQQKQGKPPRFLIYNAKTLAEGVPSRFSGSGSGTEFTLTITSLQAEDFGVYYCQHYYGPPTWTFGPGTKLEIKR"
  Dissociation % / %: -0.59

# input for lookup
Query: What value of Dissociation % has been recorded for this entry: huC2C1A1A1-V2 (antibody, human IgG4 S228P, kappa, V domains shown, Humanized, human IgG4/kappa) VH: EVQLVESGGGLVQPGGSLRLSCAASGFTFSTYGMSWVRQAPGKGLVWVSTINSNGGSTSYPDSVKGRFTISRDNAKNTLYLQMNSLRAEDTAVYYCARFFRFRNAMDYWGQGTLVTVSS VL: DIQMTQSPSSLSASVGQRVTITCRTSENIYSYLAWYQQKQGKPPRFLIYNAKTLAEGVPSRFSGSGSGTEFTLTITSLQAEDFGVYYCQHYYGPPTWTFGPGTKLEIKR
Reply: -0.2
